Hey, just so you know, these numbers are from patent US20220380442A1.

- SYSTEM TESTED: Sin Nombre virus (SNV) glycoproteins Gn and Gc displayed on the surface of Expi293F cells transfected with … (Sin Nombre virus)
- TEST PROTOCOL: flow
ENDPOINT LABEL: EC50 (µg/mL)
Numbers only, in µg/mL.

Data request: What measured EC50 goes with ANDV-54 (antibody, V domains shown) VH: EVQLVESGGGVVQPGRSLRLSCAASGFTFSPYGMHWVRQAPGKGLEWVAVVWYDGNNKYYADSVKGRFTISRDNSKNTLYLQMNSLRAEDTAVYYCARENTPTYNSGYYFDYWGQGTLVTVSS VL: QSALTQPASVSGSPGQSITISCTGTSSDVGSYDLVSWYQQHPGKAPKLIIYEGSKRPSGVSNRFSGSKSGNTASLTISGLQAEDEADYYCCSYAGSSTWVFGGGTKVTVL ?
Data returned: 3.67
